Exercise: for every item that follows, state its recorded T1/2 dimeric.
# ASSAYED TARGET: T1, dimeric hIL-4R-hFc (human, UniProt P24394 26-232)
# T1 construct: also called hIL-4R-Fc; not shown: human Fc (hFc)
# T1 sequence: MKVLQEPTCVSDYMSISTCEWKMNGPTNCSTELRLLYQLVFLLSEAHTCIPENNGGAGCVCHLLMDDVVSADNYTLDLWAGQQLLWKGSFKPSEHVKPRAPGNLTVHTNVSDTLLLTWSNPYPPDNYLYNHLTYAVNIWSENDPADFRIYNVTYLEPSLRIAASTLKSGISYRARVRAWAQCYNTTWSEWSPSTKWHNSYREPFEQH
# ASSAY OVERVIEW: SPR (BIAcore 2000); antibody captured, dimeric hIL-4R-hFc injected
Numbers only, in h.

Recorded results for 2 binders are shown here.
INSERT INTO results (binder, result_unit, test_result) VALUES
  ('VAB 10G8-19 (antibody, V domains shown, Apparently tested with mouse constant region (anti-mouse IgG capture/detection)) VH: QVQLVQSGAEVKKPGASVKVSCKASRYTFTSYDINWVRQATGQGLEWMGWMNPNSGNTGYAQKFQGRVTMTRNTSTSTAYMELSSLRSEDTAVYYCARVRRFFDYWGQGTLVTVSS VL: DIQLTQSPSFLSASVGDRVTITCWASQGIISYLAWYQQKPGKAPKLLIYAASTLHSGVPSRFSGSGSGTEFTLTISSLQPEDFATYYCHQLKSYPITFGQGTRLEIK', 'h', 2),
  ('VX 3F7-6 (antibody, V domains shown, 395/397; 399/401 without saying which was assayed; Apparently tested with mouse constant region (anti-mouse IgG capture/detection)) VH: EVQLVESGGGLVQPGGSLRLSCAASGFTFSSFWMTWVRQAPGKGLEWVANIKQDGSEKYYVDSVKGRFTISRDNAKNSLYLQMNSLRAEDTAVYYCARDPGRTMVRGGIRYYYGMDVWGQGTTVTVSS VL: DIQMTQSPSSVSASVGDRVTISCRASQGVSSWLAWYQQKPGNAPKLLISAASSIQSGVPSRFSGSGSGTDFTLTISSLQPEDFATYYCQQANSFPLTFGGGTKVEIK', 'h', 2.7);

Now for another entry.
Find the recorded T1/2 dimeric belonging to VAK8G11-13 (antibody, V domains shown, Apparently tested with mouse constant region (anti-mouse IgG capture/detection)) VH: QVRLVESGGGVVQPGGSLRLSCAASGFIFRSYGMHWVRQAPGRGLEWVAVISYDGSKTFYVDSVKVRFTISRDNSKNTLYLEMNSLRVDDTAVYFCVKEGRSGSWFDPWGQGTLVAVSS VL: DIHMTQSPSSLSASVGDRVTITCRASQAINNFLAWFQQKPGKTPKSLIFATSSLQSGVPSRFSGSGSGTDFTLTISSLQPEDFATYYCQQYNSHPWTFGQGTKVEIK and report it.
63
